Exercise: state measured NanoBRET Abs IC50 for each of the binders provided.
- target: T1, B-cat-Halo (beta-catenin HaloTag NanoBRET construct expressed in HEK293 cells) (UniProt P35222 1-781)
- T1 sequence (looked up): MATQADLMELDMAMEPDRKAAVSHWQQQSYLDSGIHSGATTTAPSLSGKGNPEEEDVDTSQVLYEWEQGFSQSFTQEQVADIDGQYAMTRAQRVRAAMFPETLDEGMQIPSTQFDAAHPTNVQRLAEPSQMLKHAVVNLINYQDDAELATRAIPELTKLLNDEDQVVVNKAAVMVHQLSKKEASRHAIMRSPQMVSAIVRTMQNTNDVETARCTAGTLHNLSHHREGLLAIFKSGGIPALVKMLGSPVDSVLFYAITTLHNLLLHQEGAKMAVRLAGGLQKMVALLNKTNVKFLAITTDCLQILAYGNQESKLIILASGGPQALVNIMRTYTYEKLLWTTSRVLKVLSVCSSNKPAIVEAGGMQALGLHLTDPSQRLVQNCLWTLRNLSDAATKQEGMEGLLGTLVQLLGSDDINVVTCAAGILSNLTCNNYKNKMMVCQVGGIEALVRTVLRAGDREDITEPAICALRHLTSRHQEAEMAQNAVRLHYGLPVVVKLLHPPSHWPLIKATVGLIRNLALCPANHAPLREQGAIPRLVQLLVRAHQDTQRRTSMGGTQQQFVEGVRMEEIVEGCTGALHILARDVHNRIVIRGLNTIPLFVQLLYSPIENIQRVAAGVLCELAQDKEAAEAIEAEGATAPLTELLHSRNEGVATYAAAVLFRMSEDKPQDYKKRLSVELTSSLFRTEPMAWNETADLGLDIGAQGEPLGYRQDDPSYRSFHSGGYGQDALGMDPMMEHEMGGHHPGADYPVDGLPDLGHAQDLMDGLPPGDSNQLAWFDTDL
- experimental.details: cell-based or functional assay
Starred links: 1 amine or outer side, 2 acyl side, 3 side chain; linkers in the order of their positions; H or OH if unused. Positions of bridges follow the written chain, without caps; N, C: chain ends. Non-standard residues stand in square brackets, D forms with d. Primed or numbered codes have the meaning given here. PyrS2″ = (S)-3-amino-1-((pent-4-en-1-yloxy)carbonyl)pyrrolidine-3-carboxylic acid (stapling residue), C=CCCCOC(=O)N1CC[C@@](N[*:1])(C(=O)[*:2])C1; B5(4) = 2,2-bis(4-pentenyl)glycine = 2-amino-2-(pent-4-en-1-yl)hept-6-enoic acid (stitching residue), C=CCCCC(CCCC=C)(N[*:1])C(=O)[*:2]; TfeGA = (S)-2-amino-3-((carboxymethyl)(2,2,2-trifluoroethyl)amino)propanoic acid, O=C([C@H](CN(CC(=O)[*:3])CC(F)(F)F)N[*:1])[*:2]; (4Pippip)GlnR″ = (S)-5-([1,4'-bipiperidin]-1'-yl)-2-amino-5-oxopentanoic acid, O=C(CC[C@H](N[*:1])C(=O)[*:2])N1CCC(N2CCCCC2)CC1; (EtSSHex)AspE = (S)-2-amino-4-(2-(hexyldisulfaneyl)ethoxy)-4-oxobutanoic acid, CCCCCCSSCCOC(=O)C[C@H](N[*:1])C(=O)[*:2]; B5(19) = 2-amino-2-(pent-4-en-1-yl)hept-6-enoic acid (bis(4-pentenyl)glycine), C=CCCCC(CCCC=C)(N[*:1])C(=O)[*:2]; (Ppz)GlnR = (S)-2-amino-5-oxo-5-(piperazin-1-yl)pentanoic acid, O=C(CC[C@H](N[*:1])C(=O)[*:2])N1CCN([*:3])CC1; GluSH = (S)-2-amino-5-mercapto-5-oxopentanoic acid, O=C(CC[C@H](N[*:1])C(=O)[*:2])S[*:3]; Bta = N[C@@H](Cc1csc2ccccc12)C(=O)O; αAllylPro = C=CC[C@@]1(C(=O)O)CCCN1; tBuAla = CC(C)(C)C[C@H](N)C(=O)O; 3Thi = N[C@@H](Cc1ccsc1)C(=O)O
Output spec: scalar in µM, unitless text.

Quick one: NanoBRET Abs IC50 for Ac-[αAllylPro]D[tBuAla][B5(19)]D[TfeGA]AAF[(4Pippip)GlnR″][PyrS2″][3Thi][Bta]Q-NH2 (staple 1-4, 4-11) [I-1940] ?
15.4

Quick one: NanoBRET Abs IC50 for Ac-[αAllylPro]D[tBuAla][B5(4)]D[GluSH]AAFL[PyrS2″][3Thi][Bta]Q-NH2 (staple 1-4, 4-11; also: isomer composition, later eluting HPLC peak) [I-1949] ?
28.5

Quick one: NanoBRET Abs IC50 for Ac-[αAllylPro]D[tBuAla][B5(19)]D[TfeGA]AAF[(Ppz)GlnR][PyrS2″][3Thi][Bta]Q-NH2 (staple 1-4, 4-11) [I-1941] ?
12.9

Quick one: NanoBRET Abs IC50 for Ac-[αAllylPro][(EtSSHex)AspE][tBuAla][B5(4)]DDAAFL[PyrS2″][3Thi][Bta]Q-NH2 (staple 1-4, 4-11) [I-1960] ?
20.4
